// data source = PubChem BioAssay AID1434

The following molecules are shown together with reported inhibition values.
molecular target: Runt-related transcription factor 1 (Homo sapiens) + Core-binding factor subunit beta (Homo sapiens) (UniProt Q01196+Q13951); assay: disruptors of Runt domain/CBFb-SMMHC interaction – biochemical, FRET, Cerulean-Runt, Venus-CBFb-SMMHC, uHTS, primary screen (AID 1434); settings: Cerulean-Runt/Venus-CBFb-SMMHC FRET ratio 530/480, 1 h; at 20 µM; stronger effect = higher value;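 note: 0% = DMSO wells and 100% = wells with excess untagged CBFb-SMMHC; inhibitors lower the FRET ratio by blocking Runt binding to CBFb-SMMHC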
Sequence (Q01196 whole entry, looked up, the tested form may be a part): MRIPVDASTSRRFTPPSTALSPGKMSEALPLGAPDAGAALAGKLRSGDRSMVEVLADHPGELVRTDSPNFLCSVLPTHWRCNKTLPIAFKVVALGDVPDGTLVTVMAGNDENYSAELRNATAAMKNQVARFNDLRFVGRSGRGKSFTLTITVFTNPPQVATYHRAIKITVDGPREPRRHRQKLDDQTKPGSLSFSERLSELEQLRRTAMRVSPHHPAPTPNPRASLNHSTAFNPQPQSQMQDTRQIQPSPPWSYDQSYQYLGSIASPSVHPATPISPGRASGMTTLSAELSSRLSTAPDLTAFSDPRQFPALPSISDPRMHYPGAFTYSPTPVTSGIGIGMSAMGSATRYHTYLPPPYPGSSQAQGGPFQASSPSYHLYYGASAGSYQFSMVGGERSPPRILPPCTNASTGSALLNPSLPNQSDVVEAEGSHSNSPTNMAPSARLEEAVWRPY
Sequence (Q13951 whole entry, looked up, the tested form may be a part): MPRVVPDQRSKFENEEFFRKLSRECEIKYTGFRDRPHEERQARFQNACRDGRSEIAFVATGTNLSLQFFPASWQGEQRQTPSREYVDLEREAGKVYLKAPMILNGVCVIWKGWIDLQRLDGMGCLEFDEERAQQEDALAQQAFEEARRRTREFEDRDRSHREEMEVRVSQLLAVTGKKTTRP
Among all 220,000 compounds or so, about 1,600 (0.73%) were called active. Many of the other results were omitted from the sample, so actives are more common in it than they were.

>>> df
                                chem_smiles             result
0     COCCC(=O)Nc1ccc2c(c1)CN(C(=O)CCOC)CC2     -1% (inactive)
1  O=C(Nc1ccc2ccccc2c1)/C(=C\c1ccc2c(c1)OCO2)NC(=O)c1ccco1  -21.7% (inactive)
2         CCN(CC)c1ccc2cc(C(=O)O)c(=O)oc2c1     77.6% (active)

Alright, here's another molecule for you.
Determine from records and report inhibition for CC(C)n1c(-c2cccs2)nc2ccccc21
1.6% (inactive)

---

molecular target: Runt-related transcription factor 1 (Homo sapiens) + Core-binding factor subunit beta (Homo sapiens) (UniProt Q01196+Q13951); experiment: disruptors of Runt domain/CBFb-SMMHC interaction – biochemical, FRET, Cerulean-Runt, Venus-CBFb-SMMHC, uHTS, primary screen (AID 1434); conditions: Cerulean-Runt/Venus-CBFb-SMMHC FRET ratio 530/480, 1 h; retest duplicate average; at 20 µM; stronger effect = higher value;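 note: 0% = DMSO wells and 100% = wells with excess untagged CBFb-SMMHC; inhibitors lower the FRET ratio by blocking Runt binding to CBFb-SMMHC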
The whole screen tested about 220,000 compounds, of which about 1,600 (0.73%) were called active. The list comes from a sample in which actives are over-represented; it also holds close analogues and randomly drawn compounds.
READOUT: inhibition

Sample answers from the record:
In [3]: df
Out[3]:
                                   molecule  result
0      COc1cccc2sc(Nc3nc(C)c(C(C)=O)s3)nc12   96.3%
1     O=c1oc2c(CN3CCCCC3)c(O)ccc2c2c1CCCCC2    148%
2  CCOC(=O)Cc1csc(SCc2cc(=O)oc3cc(O)ccc23)n1    114%
3           O=c1oc2cc(O)ccc2cc1-c1ccc(F)cc1   71.5%
4    COc1ccccc1/C=C/C1=NC(=C\N(C)C)/C(=O)O1   91.9%
5  CC(C)Cn1c(N)c(C(=O)NCc2cccs2)c2nc3ccccc3nc21   89.8%
6       COc1ccc2c(c1)CCc1cn3ncc(C#N)c3nc1-2   74.1%
7         CCN(CC)c1ccc2cc(C(=O)O)c(=O)oc2c1   71.5%
8  CS(=O)(=O)c1sc2nc(-c3ccccc3)cc(-c3ccccc3)c2c1N    108%
9  O=C(CNC(=O)OCc1ccccc1)Oc1cc2oc(=O)cc(-c3ccccc3)c2cc1Cl   71.5%

For the molecule CN(C)CCCn1c(N)c(C#N)c2nc(C#N)c(C#N)nc21 , give its measured inhibition value.
69.9%

Assign inhibition to the following record: COCC(C)OC(=O)c1c(N)n(CCCN2CCOCC2)c2nc3ccccc3nc12 (centres undefined)
129%

Note inhibition for the molecule shown: COC(=O)/C=C\C(=O)Nc1cccc([N+](=O)[O-])c1
62.5%

// fetch inhibition given entry c1ccc2cc3c(NCCN4CCOCC4)ccnc3cc2c1
71.5%
